Note to self: these compounds have IC50 reported for PASK (Invitrogen) (Homo sapiens) in various publications.

Here's what some known entries look like.
Cc1cc2cc(-c3nc4ccc(C(=O)O)cc4nc3N3CCN(c4ccccn4)C[C@@H]3C)ccc2[nH]1: < 10 µM
Nc1nn2c(=O)cc(-c3ccc(Cl)cc3)[nH]c2c1-c1ccccn1: ≤ 10 µM
Cc1noc(-c2cnn3c(=O)cc(-c4ccc5c(cnn5C5COC5)c4)[nH]c23)n1: ≤ 10 µM
O=c1cc(-c2ccc3c(c2)OCCO3)[nH]c2c(-c3ccc(N4CCCCC4)nc3)cnn12: ≤ 10 µM
O=c1cc(-c2ccc3c(c2)OCCO3)[nH]c2c(-c3ccc(Br)cc3)cnn12: ≤ 10 µM

For each of the compounds below, note its IC50.
1. CCc1nn2c(=O)cc(-c3ccc4[nH]ncc4c3)[nH]c2c1-c1ccccn1
2. Nc1nn2c(=O)cc(-c3ccc4[nH]nnc4c3)[nH]c2c1-c1ccc(Cl)cc1
3. Cn1ncc2cc(-c3cc(=O)n4ncc(C#N)c4[nH]3)ccc21
4. Cc1cc(=O)n2nc(-c3cccc(Br)c3)cc2[nH]1
5. O=c1c2c([nH]c3c(-c4ccccc4)c(-c4ccccc4)nn13)CCC2
6. O=c1cc(-c2ccc3c(c2)OCCO3)[nH]c2c(-c3cccc(F)c3)cnn12
7. CCOc1cc(-c2cc(=O)n3ncc(-c4ccnn4C)c3[nH]2)ccc1F

1. ≤ 10 µM
2. ≤ 10 µM
3. ≤ 10 µM
4. ≤ 10 µM
5. ≥ 10 µM
6. ≤ 10 µM
7. ≤ 10 µM

* * *

pIC50: −log10 of the molar value.
Note to self: these compounds have pIC50 reported for UniProtKB Q96RG2 in various publications.

Here's what some known entries look like.
Cc1nc2[nH]c(-c3ccc4[nH]nnc4c3)cc(=O)n2n1: ≥ 5.00
O=c1cc(-c2ccc3[nH]nnc3c2)[nH]c2c(-c3ccc(Cl)cc3)cnn12: ≥ 5.00

For each of the compounds below, note its pIC50.
1. Cc1noc(-c2cnn3c(=O)cc(-c4ccc5occc5c4)[nH]c23)n1
2. O=c1cc(-c2cc3ccccc3o2)[nH]c2c(-c3ccccn3)cnn12
3. CCOc1cc(-c2cc(=O)n3ncc(-c4nc(C)co4)c3[nH]2)ccc1Cl
4. O=c1cc(Cc2ccccc2)[nH]c2c(-c3ccccc3)c(-c3ccccc3)nn12
5. CC(C)N(C)c1nc2cc(C(=O)O)ccc2nc1-c1cc2cc(Cl)ccc2o1

["≥ 5.00", "≥ 5.00", "≥ 5.00", "≤ 5.00", "> 5.00"]

For each of the compounds below, note its pIC50.
1. Cc1cnc(-c2cnn3c(=O)cc(-c4ccc5onc(C)c5c4)[nH]c23)o1
2. CC(C)N(C)c1nc2cc(C(=O)O)ccc2nc1-c1ccc(C(N)=O)cc1

1: ≥ 5.00; 2: > 5.00

For each of the compounds below, note its pIC50.
1. CC(C)N(C)c1nc2cc(C(=O)O)ccc2nc1-c1cc2ccc(F)cc2o1
2. COc1ccc(-c2nc3ccc(S(=O)(=O)O)cc3nc2-c2ccc(OC)cc2)cc1
3. CC(C)N(C)c1nc2cc(C(=O)O)ccc2nc1-c1c[nH]nc1C(F)(F)F
4. C[C@H]1CN(c2ccccn2)CCN1c1nc2cc(C(=O)O)ccc2nc1-c1ccc2[nH]ncc2c1
5. COc1cc2[nH]nnc2cc1-c1cc(=O)n2nc(O)c(-c3ccccn3)c2[nH]1
6. O=c1cc(-c2ccc3c(c2)OCCO3)[nH]c2c(-c3ccccn3)cnn12

1. > 5.00
2. ≥ 5.00
3. > 5.00
4. > 5.00
5. ≥ 5.00
6. ≥ 5.00

For each of the compounds below, note its pIC50.
1. Cc1c(-c2cc(=O)n3nc(N)c(-c4ccccn4)c3[nH]2)ccc2[nH]nnc12
2. O=c1cc(-c2ccc(Cl)c(Cl)c2)[nH]c2c(-c3noc4ccccc34)cnn12

1. ≥ 5.00
2. ≥ 5.00
